Data provenance: ChEMBL document CHEMBL3227971

Tested on: Proteus mirabilis
Assay: Antimicrobial activity against Proteus mirabilis 9900 by two fold serial dilution technique
Format: functional
Property measured: MIC (µg/mL)
Please reply with the bare figure in µg/mL and do not write the unit itself.

INSERT INTO assay_data (smiles_representation, property_measured, numeric_value) VALUES
  ('CC1=C(C(=O)O)N2C(=O)[C@@H](NC(=O)COc3ccccc3)[C@H]2SC1=O', 'MIC', 125),
  ('CC(=O)OCC1=C(C(=O)O)N2C(=O)[C@@H](NC(=O)Cc3cccs3)[C@H]2SC1=O', 'MIC', 32),
  ('CC1=C(C(=O)O)N2C(=O)[C@@H](NC(=O)Cc3cccs3)[C@H]2SC1=O', 'MIC', 63);

Lab note: next compound to report on.
Value wanted: MIC (Proteus mirabilis) of entry CC(=O)OCC1=C(C(=O)O)N2C(=O)[C@@H](NC(=O)Cc3cccs3)[C@H]2SC1
1

----------
Tested on: Staphylococcus aureus
Assay: Antimicrobial activity against Staphylococcus aureus 9537 by two fold serial dilution technique in presence of 50% serum
Format: functional
# key: entry, value: MIC
Please reply with the bare figure in µg/mL and do not write the unit itself.

INSERT INTO measurements (molecule, property_measured, endpoint_unit, numeric_value) VALUES
  ('CC(=O)OCC1=C(C(=O)O)N2C(=O)[C@@H](NC(=O)Cc3cccs3)[C@H]2SC1 [CEPHALOTHIN]', 'MIC', 'µg/mL', 8);

Lab note: next molecule to report on.
Endpoint output: MIC of CC(=O)OCC1=C(C(=O)O)N2C(=O)[C@@H](NC(=O)Cc3cccs3)[C@H]2SC1=O . Value?
63

----------
Tested on: Enterococcus faecalis
Assay: Antimicrobial activity against Streptococcus faecalis 20688 by two fold serial dilution technique
Type: functional
Property measured: MIC (µg/mL)
Please reply with the bare figure in µg/mL and do not write the unit itself.

INSERT INTO measurements (compound, property_measured, numeric_value) VALUES
  ('CC1=C(C(=O)O)N2C(=O)[C@@H](N)[C@H]2SC1=O.Cc1ccc(S(=O)(=O)O)cc1', 'MIC', 32);

Endpoint output: MIC of CC1=C(C(=O)O)N2C(=O)[C@@H](NC(=O)Cc3cccs3)[C@H]2SC1=O . Value?
63

Endpoint output: MIC of CC(=O)OCC1=C(C(=O)O)N2C(=O)[C@@H](NC(=O)Cc3cccs3)[C@H]2SC1=O . Value?
125

Endpoint output: MIC of CC(=O)OCC1=C(C(=O)O)N2C(=O)[C@@H](NC(=O)Cc3cccs3)[C@H]2SC1 [CEPHALOTHIN] . Value?
32

Endpoint output: MIC of CC1=C(C(=O)O)N2C(=O)[C@@H](NC(=O)COc3ccccc3)[C@H]2SC1=O . Value?
63

----------
Tested on: Escherichia coli
Assay: Antimicrobial activity against Escherichia coli 20341 by two fold serial dilution technique
Type: functional
Property measured: MIC

INSERT INTO results (smiles_representation, property_measured, result) VALUES
  ('CC1=C(C(=O)O)N2C(=O)[C@@H](NC(=O)COc3ccccc3)[C@H]2SC1=O', 'MIC', '> 125 µg/mL'),
  ('CC1=C(C(=O)O)N2C(=O)[C@@H](NC(=O)Cc3cccs3)[C@H]2SC1=O', 'MIC', '> 125 µg/mL'),
  ('CC(=O)OCC1=C(C(=O)O)N2C(=O)[C@@H](NC(=O)Cc3cccs3)[C@H]2SC1', 'MIC', '16 µg/mL'),
  ('CC1=C(C(=O)O)N2C(=O)[C@@H](N)[C@H]2SC1=O.Cc1ccc(S(=O)(=O)O)cc1', 'MIC', '> 125 µg/mL');

Lab note: next compound to report on.
Endpoint output: MIC of CC(=O)OCC1=C(C(=O)O)N2C(=O)[C@@H](NC(=O)Cc3cccs3)[C@H]2SC1=O . Value?
> 125 µg/mL

----------
Tested on: Streptococcus pneumoniae
Assay: Antimicrobial activity against Streptococcus pneumoniae 1985 by two fold serial dilution technique
Type: functional
Property measured: MIC (µg/mL)
Please reply with the bare figure in µg/mL and do not write the unit itself.

INSERT INTO assay_data (smiles_representation, property_measured, numeric_value) VALUES
  ('CC1=C(C(=O)O)N2C(=O)[C@@H](N)[C@H]2SC1=O.Cc1ccc(S(=O)(=O)O)cc1', 'MIC', 63);

Endpoint output: MIC of CC1=C(C(=O)O)N2C(=O)[C@@H](NC(=O)COc3ccccc3)[C@H]2SC1=O . Value?
32

Endpoint output: MIC of CC1=C(C(=O)O)N2C(=O)[C@@H](NC(=O)Cc3cccs3)[C@H]2SC1=O . Value?
63

Endpoint output: MIC of CC(=O)OCC1=C(C(=O)O)N2C(=O)[C@@H](NC(=O)Cc3cccs3)[C@H]2SC1 . Value?
0.06

Endpoint output: MIC of CC(=O)OCC1=C(C(=O)O)N2C(=O)[C@@H](NC(=O)Cc3cccs3)[C@H]2SC1=O . Value?
1

----------
Test system: Staphylococcus aureus
Assay: Antimicrobial activity against Staphylococcus aureus 9537 by two fold serial dilution technique in presence of 50% serum
Type: functional
# key: entry, value: MIC

Field: example entries. Status: answers known.
INSERT INTO results (smiles_representation, target, result) VALUES
  ('CC1=C(C(=O)O)N2C(=O)[C@@H](NC(=O)COc3ccccc3)[C@H]2SC1=O', 'Staphylococcus aureus', '> 63 mg/L'),
  ('CC1=C(C(=O)O)N2C(=O)[C@@H](N)[C@H]2SC1=O.Cc1ccc(S(=O)(=O)O)cc1', 'Staphylococcus aureus', '> 63 mg/L');

Endpoint output: MIC of CC1=C(C(=O)O)N2C(=O)[C@@H](NC(=O)Cc3cccs3)[C@H]2SC1=O . Value?
> 63 mg/L
